Where do these numbers come from? They come from paper PMC6638984.

Here the recorded ΔG, event 1, two-site model is given for each entry.
- STUDY_TARGET: T1, BS69CC-MYND (BS69 amino acid 480–602, CC-MYND domain) (Homo sapiens, UniProt Q15326)
- T1 construct: The BS69 CC-MYND domain (amino acids 480–602) was amplified from pCI-BS69; GST (N, cleaved yes); 6xHis (N, cleaved yes); made in house; host or cells: E. coli Rosetta 2 (DE3) pLysS
- T1 sequence (Q15326 480-602): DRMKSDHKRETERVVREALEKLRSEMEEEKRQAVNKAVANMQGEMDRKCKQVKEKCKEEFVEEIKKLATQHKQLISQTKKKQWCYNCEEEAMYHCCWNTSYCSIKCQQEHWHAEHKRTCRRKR
- ASSAY_PROCEDURE: Isothermal titration calorimetry (ITC) of EBNA2 peptides and polypeptides binding to BS69CC-MYND
- ASSAY_SETUP: 29 injections, mean ± SD of 3 independent experiments

MOLECULE	READING_UNIT	ΔG, event 1, two-site model
EBNA2_348-422 SD + m3 mt: type 2 EBNA2 polypeptide 348–422 containing both the SD and motif 3 (ATAEA) mutations (protein, left off: His6, N-terminal, cleaved, type 2 EBNA2 polypeptide 348–422 containing both the SD and motif 3 (ATAEA) mutations) SMPQLSPVVSLHQGQGPENSPTPGPSTAGPVCRVTPSATPDISPIHEPESSDSEEPPFLFPDDWYPATAEAAELD	kJ/mol	-40.2
EBNA2_348-422 SD + m3 T1: type 2 EBNA2 polypeptide 348–422 containing both the SD and motif 3 (PSIDP) mutations (protein, left off: His6, N-terminal, cleaved, type 2 EBNA2 polypeptide 348–422 containing both the SD and motif 3 (PSIDP) mutations) SMPQLSPVVSLHQGQGPENSPTPGPSTAGPVCRVTPSATPDISPIHEPESSDSEEPPFLFPDDWYPPSIDPAELD	kJ/mol	-46.4
T2 EBNA2_348-422 SD: type 2 EBNA2 polypeptide 348–422 with an S409D mutation (protein, left off: His6, N-terminal, cleaved, type 2 EBNA2 polypeptide 348–422 with an S409D mutation) SMPQLSPVVSLHQGQGPENSPTPGPSTAGPVCRVTPSATPDISPIHEPESSDSEEPPFLFPDDWYPPTLEPAELD	kJ/mol	-46
T2 EBNA2_348-422: type 2 EBNA2 polypeptide containing motif 1, 2 and 3, amino acids 348–422 (protein, left off: His6, N-terminal, cleaved) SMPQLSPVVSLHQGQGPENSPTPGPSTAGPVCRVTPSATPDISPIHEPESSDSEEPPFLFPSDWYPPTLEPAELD	kJ/mol	-46
